Entries and their % remaining in soil values follow.
Experiment: Fenton reaction degradation of PAHs in Quakertown silt loam
Conditions: Hydrogen Peroxide (2g), 200 mg Ferrous Sulfate; Data from TABLE 3
MEASURE: % remaining in soil (c %)

# TEST SMILES, ASSAY RESULT
measured = [
    ("c1ccc2cc3ccccc3cc2c1", 61.9),
    ("c1ccc2c(c1)cc1ccc3cccc4ccc2c1c34", 3.3),
    ("c1cc2ccc3cccc4ccc(c1)c2c34", 15.5),
]

###

Assay: Hydrogen peroxide oxidation of PAHs at near neutral pH (modified Fenton's reagent) in Quakertown silt loam
Details: mFR + catechol, pH ca. 6.0-6.5

# COMPOUND, READOUT UNIT, % remaining in soil
rows = [
    ("c1ccc2c(c1)cc1ccc3cccc4ccc2c1c34 [Benzo(a)pyrene, benzo(a)pyrene]", "b %", 54.8),
    ("c1cc2ccc3cccc4ccc(c1)c2c34 [Pyrene, pyrene]", "b %", 58.3),
]
